Hello, the source for this data is patent US8287850B2, in case you need it.

# Tested on: mouse NFS-60 cells
# protocol_description: Mitogenicity of G-CSF variants for mouse NFS-60 cells (Example 6.3)
# Assay type: cell-based
# measurement_parameters: Conc. 50 pg/ml (G-CSF content), 3 days
The following molecules are listed with their measured Proliferation of mouse NFS-60 cells, induced by G-CSF variants values.
Answer with a bare number; do not write a unit.

Entry HES-GCSF 50/0.7: hG-CSF conjugated with AldehydoHES50/0.7 of example 6.1(j), prepared in example 6.2(b) (conjugate, UniProt P09919 31-207, looked up, hydroxyethyl starch conjugate HES50/0.7) Granulocyte …: TPLGPASSLPQSFLLKCLEQVRKIQGDGAALQEKLVSECATYKLCHPEELVLLGHSLGIPWAPLSSCPSQALQLAGCLSQLHSGLFLYQGLLQALEGISPELGPTLDTLQLDVADFATTIWQQMEELGMAPALQPTQGAMPAFASAFQRRAGGVLVASHLQSFLEVSYRVLRHLAQP — recorded Proliferation of mouse NFS-60 cells, induced by G-CSF variants = 2.15

// recorded Proliferation of mouse NFS-60 cells, induced by G-CSF variants for Neupogen: non-modified Neupogen (Amgen), rhG-CSF filgrastim, non-glycosylated, E. coli (protein, UniProt P09919 31-207, looked up, filgrastim, N-terminal Met, non-modified Neupogen (Amgen), rhG-CSF filgrastim, non-glycosylated, E. coli) Granulocyte …: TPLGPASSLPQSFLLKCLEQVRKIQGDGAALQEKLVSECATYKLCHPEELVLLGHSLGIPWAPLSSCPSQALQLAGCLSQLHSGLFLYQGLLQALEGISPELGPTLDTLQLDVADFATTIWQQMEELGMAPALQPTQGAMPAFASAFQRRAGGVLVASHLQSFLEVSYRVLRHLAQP : 2.49

Sure, the documented Proliferation of mouse NFS-60 cells, induced by G-CSF variants for HES-GCSF 10/0.7: hG-CSF conjugated with AldehydoHES10/0.7 of example 6.1(d), prepared in example 6.2(b) (conjugate, UniProt P09919 31-207, looked up, hydroxyethyl starch conjugate HES10/0.7) Granulocyte …: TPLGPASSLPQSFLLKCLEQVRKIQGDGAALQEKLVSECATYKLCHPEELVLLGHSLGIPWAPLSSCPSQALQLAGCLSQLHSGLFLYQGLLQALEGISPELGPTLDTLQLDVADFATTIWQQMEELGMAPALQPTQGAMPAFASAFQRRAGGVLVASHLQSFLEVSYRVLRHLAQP is 2.41

Query Neulasta: non-modified Neulasta (Amgen) (conjugate, UniProt P09919 31-207, looked up, pegfilgrastim; 20 kDa PEG) Granulocyte …: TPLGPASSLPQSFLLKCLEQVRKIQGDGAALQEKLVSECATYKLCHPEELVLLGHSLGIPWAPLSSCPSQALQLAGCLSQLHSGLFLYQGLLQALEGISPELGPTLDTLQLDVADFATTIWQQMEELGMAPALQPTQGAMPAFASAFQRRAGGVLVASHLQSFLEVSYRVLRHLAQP yields Proliferation of mouse NFS-60 cells, induced by G-CSF variants of 2.25
